Molecular target: recombinant human KLK5 (human) (UniProt Q9Y337)
Sequence (Q9Y337 67-293): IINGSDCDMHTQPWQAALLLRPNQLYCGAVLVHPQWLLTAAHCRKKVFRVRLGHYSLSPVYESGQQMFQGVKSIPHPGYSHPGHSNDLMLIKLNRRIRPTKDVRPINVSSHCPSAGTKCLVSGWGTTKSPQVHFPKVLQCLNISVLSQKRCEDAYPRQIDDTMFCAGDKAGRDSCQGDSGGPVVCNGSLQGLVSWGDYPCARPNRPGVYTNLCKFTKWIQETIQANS
Assay: direct activity assay, 5 nM KLK5, Boc-VPR-AMC
QUANTITY_KIND: pIC50
Conceptually, pIC50 converts a concentration in mol/L into minus its log10.

- BINDER: "9H5 (antibody, V domains shown) VH: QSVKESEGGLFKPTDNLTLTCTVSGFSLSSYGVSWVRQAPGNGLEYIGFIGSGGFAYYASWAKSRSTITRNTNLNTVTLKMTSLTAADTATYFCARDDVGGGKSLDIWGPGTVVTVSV VL: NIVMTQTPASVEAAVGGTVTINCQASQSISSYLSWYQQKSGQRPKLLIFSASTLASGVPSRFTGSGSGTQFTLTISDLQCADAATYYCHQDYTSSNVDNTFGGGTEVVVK"
  pIC50: 8.97

Pending binder:
Problem: Given 3-3F5 (antibody, V domains shown) VH: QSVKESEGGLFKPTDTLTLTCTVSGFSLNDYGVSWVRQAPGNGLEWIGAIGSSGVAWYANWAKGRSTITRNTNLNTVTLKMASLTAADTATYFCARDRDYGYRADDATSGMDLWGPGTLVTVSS VL: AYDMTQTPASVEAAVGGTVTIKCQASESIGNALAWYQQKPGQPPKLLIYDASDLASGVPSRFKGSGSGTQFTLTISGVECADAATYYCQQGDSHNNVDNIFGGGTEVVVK , state its recorded pIC50.
Solution: 8.88

All figures here come from patent US20200040103A1.
